FYI, the data here is from patent US20050288488A1.

- assaySystem: AHR-LexA chimera (UniProt P0A7C2+P30561)
- Construct: expressed in transfected cells; host or cells: Saccharomyces cerevisiae strain GRS4 (with pTT8/hsp82) transformed with pEGAHRNΔ166 and pSH18-34
- Sequence (P0A7C2+P30561 fused with the stated changes): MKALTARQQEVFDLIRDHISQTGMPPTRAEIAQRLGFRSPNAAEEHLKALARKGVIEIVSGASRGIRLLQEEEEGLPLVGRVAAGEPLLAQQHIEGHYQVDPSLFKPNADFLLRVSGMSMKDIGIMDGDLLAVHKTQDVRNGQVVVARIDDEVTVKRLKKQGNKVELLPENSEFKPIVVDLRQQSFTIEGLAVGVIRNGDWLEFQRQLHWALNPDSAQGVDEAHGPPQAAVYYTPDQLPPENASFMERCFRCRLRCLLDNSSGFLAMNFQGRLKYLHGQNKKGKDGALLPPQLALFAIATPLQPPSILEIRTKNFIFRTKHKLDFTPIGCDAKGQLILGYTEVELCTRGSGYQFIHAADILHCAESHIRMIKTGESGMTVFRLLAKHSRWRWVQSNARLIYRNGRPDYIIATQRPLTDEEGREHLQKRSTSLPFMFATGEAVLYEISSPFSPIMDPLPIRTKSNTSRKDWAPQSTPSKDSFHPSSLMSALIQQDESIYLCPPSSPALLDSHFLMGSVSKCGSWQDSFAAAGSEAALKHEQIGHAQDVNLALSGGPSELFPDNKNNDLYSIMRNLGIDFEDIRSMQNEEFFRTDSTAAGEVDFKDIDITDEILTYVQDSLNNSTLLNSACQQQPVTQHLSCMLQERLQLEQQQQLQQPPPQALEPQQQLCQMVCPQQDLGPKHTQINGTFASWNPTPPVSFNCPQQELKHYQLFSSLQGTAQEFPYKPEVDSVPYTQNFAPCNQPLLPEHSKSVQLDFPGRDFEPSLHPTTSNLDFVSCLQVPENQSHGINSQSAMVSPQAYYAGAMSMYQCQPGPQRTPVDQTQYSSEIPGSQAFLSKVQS
- Assay type: cell-based
- conditionsUsed: yeast GRS4 with pEGAHRNΔ166 and pSH18-34; agonist 16-18 hours; read-out: EC50 (LexA operator lacZ reporter)
reportedProperty: EC50
Record the result as a number with its unit.

# get_value(readout='EC50', item= O=c1cc(-c2ccccc2)oc2ccc3ccccc3c12 )
61 nM
